experiment: growth inhibition of non-replicating M. tuberculosis (AID 488890); settings: Mycobacterium tuberculosis non-replicating, at 25 µM, stronger effect = higher value;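 further: plate controls were DMSO cells for no effect and high antibiotic wells for full effect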
The whole screen tested about 320,000 compounds, of which about 1,300 (0.41%) were called active. Roughly 3% stayed inconclusive and do not appear here. A selection follows. Results with a measured potency or affinity are listed apart.
Label true when inhibition >= 20%; otherwise false.

- Compound: "O=[N+]([O-])c1ccc(CN2CCN(c3ccc([N+](=O)[O-])cc3)CC2)cc1"
  Assigned Class: "true"

In: Item Cc1ccc2nc(/N=C(\N)NC(=O)N3c4ccccc4Sc4ccccc43)nc(C)c2c1 with inhibition of 20% or above?
Out: false

In: Follow-up entry: Cc1ccc(S(=O)(=O)NC(CCc2ccccc2)CC(=O)C(C)(C)C)cc1 (stereo unspecified)
Out: false

In: Follow-up entry: Cc1cccc(NC2=NC3(CCCCC3)N=C(N)N2)c1
Out: true

In: Follow-up entry: COc1ccc(S(=O)(=O)N2CCN(c3ccc4nnc(-c5ccc(F)cc5)n4n3)CC2)cc1
Out: true

In: Follow-up entry: Cc1ccn2c(=O)cc(C)nc2c1
Out: false

In: Follow-up entry: Cc1nc(/N=C(\N)NC(=O)c2ccccc2)nc2ccccc12
Out: false

In: Follow-up entry: COc1ccc2[nH]c(=O)c(C(=O)O)cc2c1
Out: false

In: Follow-up entry: O=[N+]([O-])c1cc2c(cc1CN1CCN(c3ccc(F)cc3)CC1)OCO2
Out: false

In: Follow-up entry: O=C1CC(N2CCN(c3ccccc3O)CC2)C(=O)N1Cc1ccccc1 (stereo unspecified)
Out: true

In: Follow-up entry: Cc1ccc(CC2S/C(=N/c3ccccn3)NC2=O)cc1 (stereo unspecified)
Out: true

====

experiment: growth inhibition of non-replicating M. tuberculosis (AID 488890); conditions: Mycobacterium tuberculosis non-replicating, at 25 µM, stronger effect = higher value;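 further: plate controls were DMSO cells for no effect and high antibiotic wells for full effect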
Among all 320,000 compounds or so, about 1,300 (0.41%) were called active. Another 3% or so got no clear call; they are omitted. Only a sample is shown. Entries with a potency or affinity are not part of this list.
Would you mind telling me the reported inhibition of each entry?
I'd appreciate it if you wrote the number followed by its unit.

- Molecule: "CC1(C)CC(=O)C2=C(C1)OC1=C(C(=O)CC(C)(C)C1)C2c1ccccc1"
  inhibition: "-3.44%"
- Molecule: "CCc1ccc(NC(=O)COc2cccc(-n3cnnn3)c2)cc1"
  inhibition: "23.8%"
- Molecule: "O=C(CCc1ccccc1)Nc1cc(NC(=O)CCc2ccccc2)cc(C(=O)O)c1"
  inhibition: "-12.7%"
- Molecule: "Nc1cccc(CP(=O)(c2ccccc2)c2ccccc2)c1"
  inhibition: "1.01%"
- Molecule: "Cc1cc(Sc2ccc([N+](=O)[O-])cn2)ccc1Br"
  inhibition: "12.1%"

List the reported inhibition of each molecule below.
1. NC(=O)N/N=C/c1cn(-c2ccccc2)nc1-c1cccs1
2. CC1=N/C(=C/c2cccnc2)C(=O)O1

Out:
1. 8.14%
2. -16.7%

List the reported inhibition of each molecule below.
1. O=Cc1cn(-c2ccccc2)nc1-c1ccccc1
2. Cc1ccc(/C=C2\SC(=S)N(CCC(=O)Nc3cccnc3)C2=O)cc1
3. Cc1cc2oc(=O)cc(CN3CCc4ccccc43)c2cc1Cl
4. COc1ccc(C(=O)O/N=C(/c2cccs2)C(C)(C)C)cc1
5. O=[N+]([O-])c1ccc(Oc2cccc(C(F)(F)F)c2)nc1
6. Cc1nc2ccccc2c(=O)n1/N=C/c1cn(-c2ccccc2)nc1-c1cccs1
7. N/C(=N\OC(=O)CCC1CCCC1)c1ccncc1
8. CC1CCCC(NC(=O)C2COc3ccccc3O2)C1C (stereo not given)

Out:
-1.35%
2.99%
-0.24%
35.7%
65.4%
3.43%
60.9%
17.1%

List the reported inhibition of each molecule below.
1. O=C(c1ccccc1)N1CCN(C(=S)NCc2ccco2)CC1
2. CCN(CC1COc2ccccc2O1)C(=S)NC1CC2CCC1C2 (stereo not given)

Out:
1: -12.8%; 2: 0.66%

List the reported inhibition of each molecule below.
1. O=C(Nc1nnc(-c2cccnc2)o1)c1ccccc1Cl
2. CCn1cc(CNC(=S)Nc2cccc(Cl)c2C)cn1
3. S=c1[nH]nc(-c2cccs2)n1/N=C/c1cn(-c2ccccc2)nc1-c1cccs1

Out:
["35.5%", "72.5%", "-1.62%"]
